# Run parameters: buffer; pH 7.4; 200.0 µM
Listed here are compounds together with their documented solubility kinetic.
Give the value in µg/mL but do not write µg/mL after it.

Example entries and their recorded answers appear below.
| Compound | Measurement unit | Observed value |
| --- | --- | --- |
| COCc1ccc(C(=O)Nc2cccc(S(=O)(=O)N(C)c3ccccc3)c2)cc1 | µg/mL | 15.7 |
| COc1ccc(/C=C/C(=O)OCC(=O)NCCc2ccccc2)c(OC)c1 | µg/mL | 8.5 |

Now for a further compound.
Problem: // query solubility kinetic value for entry CCOCCCNC(=O)/C(C#N)=C/c1cc(C)c(O)c(C)c1
Result: 7
